Experiment: Metabolic stability in dog liver microsomes assessed as compound remaining after 10 mins
Assay type: ADME, Canis lupus familiaris, Microsome
Conditions: read-out: Stability
metric name: remaining at 10 min (%)

{"columns": ["smiles input", "value measured"],
 "data": [
  ["Fc1ccccc1-c1ccc2[nH]c(/C=C/C3CCCCC3)nc2c1", 75],
  ["CC(=O)N1CCC(/C=C/c2nc3cc(-c4ccccc4C(F)(F)F)ccc3[nH]2)CC1", 100],
  ["FC(F)(F)c1ccccc1-c1ccc2[nH]c(/C=C/C3CCSCC3)nc2c1", 8],
  ["O=S1(=O)CCC(/C=C/c2nc3cc(-c4ccccc4C(F)(F)F)ccc3[nH]2)CC1", 60],
  ["CC1(/C=C/c2nc3cc(-c4ccccc4C(F)(F)F)ccc3[nH]2)CCC(F)(F)CC1", 28]
]}
